The reported numbers originate from patent US12139487B2.

- target.system: BRM (Homo sapiens, UniProt P51531)
- Construct: made in house; host or cells: High Five insect cells
- Sequence (P51531 whole entry): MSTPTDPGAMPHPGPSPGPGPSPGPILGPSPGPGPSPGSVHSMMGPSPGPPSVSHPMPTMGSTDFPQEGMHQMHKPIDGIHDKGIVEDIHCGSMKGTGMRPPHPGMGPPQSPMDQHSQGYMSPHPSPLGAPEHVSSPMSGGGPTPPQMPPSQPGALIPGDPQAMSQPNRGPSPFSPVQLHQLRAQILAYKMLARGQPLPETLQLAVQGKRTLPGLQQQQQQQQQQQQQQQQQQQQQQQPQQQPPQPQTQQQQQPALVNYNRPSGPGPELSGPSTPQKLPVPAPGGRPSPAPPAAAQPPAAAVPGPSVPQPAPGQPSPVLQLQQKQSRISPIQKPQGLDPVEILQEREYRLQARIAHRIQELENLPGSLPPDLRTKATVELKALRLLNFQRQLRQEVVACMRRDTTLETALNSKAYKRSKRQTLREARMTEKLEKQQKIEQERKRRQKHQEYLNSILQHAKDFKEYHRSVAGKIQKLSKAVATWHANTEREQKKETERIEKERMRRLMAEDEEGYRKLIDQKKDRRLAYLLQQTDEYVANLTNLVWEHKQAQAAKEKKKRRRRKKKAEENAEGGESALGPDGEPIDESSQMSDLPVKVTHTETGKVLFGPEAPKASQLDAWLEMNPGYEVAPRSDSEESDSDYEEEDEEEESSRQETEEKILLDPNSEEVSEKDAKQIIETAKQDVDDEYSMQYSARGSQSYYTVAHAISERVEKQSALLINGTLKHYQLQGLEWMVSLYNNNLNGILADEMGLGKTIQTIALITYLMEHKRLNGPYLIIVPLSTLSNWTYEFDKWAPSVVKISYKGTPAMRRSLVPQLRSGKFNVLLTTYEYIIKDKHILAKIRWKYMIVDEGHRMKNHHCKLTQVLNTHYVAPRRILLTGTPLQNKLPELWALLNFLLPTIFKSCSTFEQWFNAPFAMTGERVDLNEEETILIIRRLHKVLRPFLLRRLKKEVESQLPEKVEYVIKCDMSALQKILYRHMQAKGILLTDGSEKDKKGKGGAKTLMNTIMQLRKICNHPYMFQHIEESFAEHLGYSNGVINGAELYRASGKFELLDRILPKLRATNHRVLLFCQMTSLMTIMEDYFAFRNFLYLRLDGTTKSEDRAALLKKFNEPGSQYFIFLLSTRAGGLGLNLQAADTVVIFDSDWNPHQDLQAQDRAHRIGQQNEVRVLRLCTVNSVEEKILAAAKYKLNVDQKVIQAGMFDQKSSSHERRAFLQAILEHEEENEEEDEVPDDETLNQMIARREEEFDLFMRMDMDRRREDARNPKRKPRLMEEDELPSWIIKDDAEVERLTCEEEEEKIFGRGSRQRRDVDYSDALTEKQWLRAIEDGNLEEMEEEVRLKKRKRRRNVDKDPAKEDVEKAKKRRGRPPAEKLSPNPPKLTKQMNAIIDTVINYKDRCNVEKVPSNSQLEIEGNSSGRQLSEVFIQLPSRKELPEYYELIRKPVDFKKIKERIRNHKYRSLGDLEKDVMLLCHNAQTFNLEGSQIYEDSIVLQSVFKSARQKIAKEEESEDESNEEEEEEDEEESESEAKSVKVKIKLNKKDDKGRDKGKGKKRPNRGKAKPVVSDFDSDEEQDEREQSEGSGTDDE
- assay.text: ATPase catalytic activity assay (ADP-Glo), BRM
- Assay type: biochemical
- test.conditions: ATPase assay, selectivity BRG1/BRM, Table 10
- Method: The ATPase catalytic activity of BRM or BRG-1 was measured by an in vitro biochemical assay using ADP-Glo™ (Promega, V9102). The ADP-Glo™ kinase assay is performed in two steps once the reaction is complete. The first step is to deplete any unconsumed ATP in the reaction. The second step is to convert the reaction product ADP to ATP, which will be utilized by the luciferase to generate luminesce and be detected by a luminescence reader, such as Envision. […]
value.kind: Ratio (BRG1 IC50 (μM) divided by BRM IC50 (μM))

| compound | target.system | result |
| --- | --- | --- |
| COc1nc(C(F)F)ccc1-c1ccc2cnc(CNC(=O)c3cc(Cl)c4c(c3)S(=O)(=O)[C@@H](F)COC4)cc2n1 | BRM (Homo sapiens, UniProt P51531) | 27.18 |
| COc1ccc(-c2ccc3cnc(CNC(=O)c4cc(F)c5c(c4)S(=O)(=O)[C@@H](F)CCO5)cc3n2)nc1[C@@H]1CC1(F)F [Compound 144] | BRM (Homo sapiens, UniProt P51531) | 25.02 |
| O=C(NCc1cc2nc(N3CCCc4ccc(C(F)F)nc43)ccc2cn1)c1cc(Cl)c2c(c1)S(=O)(=O)[C@@H](F)CCO2 | BRM (Homo sapiens, UniProt P51531) | 23.60 |

###

Collected Ratio (BRG1 IC50 (μM) divided by BRM IC50 (μM)) values appear next to each entry.
- target.system: BRM (Homo sapiens, UniProt P51531)
- Construct: made in house; host or cells: High Five insect cells
- assay.text: ATPase catalytic activity assay (ADP-Glo), BRM
- Assay type: biochemical
- test.conditions: ATPase assay, selectivity BRG1/BRM, Table 10
value.kind: Ratio (BRG1 IC50 (μM) divided by BRM IC50 (μM))

| compound | result |
| --- | --- |
| CN(C)c1ccnc2c1OCCN2c1ccc2cnc(CNC(=O)c3cc(F)c4c(c3)S(=O)(=O)[C@@H](F)CCO4)cc2n1 | 11.58 |
| [2H]C([2H])([2H])Oc1nc(C(F)F)ccc1-c1ccc2cnc(CNC(=O)c3cc(F)c4c(c3)S(=O)(=O)[C@@H](F)COC4)cc2n1 | 12.05 |
| COc1nc(C)ccc1-c1ccc2cnc(CNC(=O)c3cc(F)c4c(c3)S(=O)(=O)[C@@H](F)CCO4)cc2n1 [Compound 193] | 16.06 |
| O=C(NCc1cc2nc(N3CCOc4ccc([C@H]5C[C@@H]5C(F)F)nc43)ccc2cn1)c1cc(F)c2c(c1)S(=O)(=O)[C@@H](F)CCO2 | 19.09 |

###

- Tested on: BRM-dependent transcription (BRG1 mutant lung cancer cell line A549)
- assay.text: BRM-dependent transcription, MMTV luciferase reporter in BRG1 mutant A549 cells
- Format: cell-based
- test.conditions: MMTV luciferase reporter cell lines, selectivity BRG1/BRM, Table 11
value.kind: Ratio (MDA-MMTV IC50 (μM) divided by A549-MMTV IC50 (μM))

| compound | result |
| --- | --- |
| COc1nc(C(F)(F)F)ccc1-c1ccc2cnc(CNC(=O)c3cc(Cl)c4c(c3)S(=O)(=O)[C@@H](F)CCO4)cc2n1 [Compound 348] | 30.79 |
| [2H]C([2H])([2H])Oc1nc([C@H](C)F)ccc1-c1ccc2cnc(CNC(=O)c3cc(F)c4c(c3)S(=O)(=O)[C@@H](F)CCO4)cc2n1 [Compound 384] | 29.60 |
| C[C@@H]1CCN1c1cnc2c(-c3ccc4cnc(CNC(=O)c5cc(F)c6c(c5)S(=O)(=O)[C@@H](F)COC6)cc4n3)cccc2c1 [Compound 470] | 29.42 |
